Value source: patent US10729680B2

# target entity: full-length human ATR protein (ATR/ATRIP) (Homo sapiens (Human), UniProt Q13535)
# Sequence (Q13535 other isoform, or with tags, fused parts or gaps): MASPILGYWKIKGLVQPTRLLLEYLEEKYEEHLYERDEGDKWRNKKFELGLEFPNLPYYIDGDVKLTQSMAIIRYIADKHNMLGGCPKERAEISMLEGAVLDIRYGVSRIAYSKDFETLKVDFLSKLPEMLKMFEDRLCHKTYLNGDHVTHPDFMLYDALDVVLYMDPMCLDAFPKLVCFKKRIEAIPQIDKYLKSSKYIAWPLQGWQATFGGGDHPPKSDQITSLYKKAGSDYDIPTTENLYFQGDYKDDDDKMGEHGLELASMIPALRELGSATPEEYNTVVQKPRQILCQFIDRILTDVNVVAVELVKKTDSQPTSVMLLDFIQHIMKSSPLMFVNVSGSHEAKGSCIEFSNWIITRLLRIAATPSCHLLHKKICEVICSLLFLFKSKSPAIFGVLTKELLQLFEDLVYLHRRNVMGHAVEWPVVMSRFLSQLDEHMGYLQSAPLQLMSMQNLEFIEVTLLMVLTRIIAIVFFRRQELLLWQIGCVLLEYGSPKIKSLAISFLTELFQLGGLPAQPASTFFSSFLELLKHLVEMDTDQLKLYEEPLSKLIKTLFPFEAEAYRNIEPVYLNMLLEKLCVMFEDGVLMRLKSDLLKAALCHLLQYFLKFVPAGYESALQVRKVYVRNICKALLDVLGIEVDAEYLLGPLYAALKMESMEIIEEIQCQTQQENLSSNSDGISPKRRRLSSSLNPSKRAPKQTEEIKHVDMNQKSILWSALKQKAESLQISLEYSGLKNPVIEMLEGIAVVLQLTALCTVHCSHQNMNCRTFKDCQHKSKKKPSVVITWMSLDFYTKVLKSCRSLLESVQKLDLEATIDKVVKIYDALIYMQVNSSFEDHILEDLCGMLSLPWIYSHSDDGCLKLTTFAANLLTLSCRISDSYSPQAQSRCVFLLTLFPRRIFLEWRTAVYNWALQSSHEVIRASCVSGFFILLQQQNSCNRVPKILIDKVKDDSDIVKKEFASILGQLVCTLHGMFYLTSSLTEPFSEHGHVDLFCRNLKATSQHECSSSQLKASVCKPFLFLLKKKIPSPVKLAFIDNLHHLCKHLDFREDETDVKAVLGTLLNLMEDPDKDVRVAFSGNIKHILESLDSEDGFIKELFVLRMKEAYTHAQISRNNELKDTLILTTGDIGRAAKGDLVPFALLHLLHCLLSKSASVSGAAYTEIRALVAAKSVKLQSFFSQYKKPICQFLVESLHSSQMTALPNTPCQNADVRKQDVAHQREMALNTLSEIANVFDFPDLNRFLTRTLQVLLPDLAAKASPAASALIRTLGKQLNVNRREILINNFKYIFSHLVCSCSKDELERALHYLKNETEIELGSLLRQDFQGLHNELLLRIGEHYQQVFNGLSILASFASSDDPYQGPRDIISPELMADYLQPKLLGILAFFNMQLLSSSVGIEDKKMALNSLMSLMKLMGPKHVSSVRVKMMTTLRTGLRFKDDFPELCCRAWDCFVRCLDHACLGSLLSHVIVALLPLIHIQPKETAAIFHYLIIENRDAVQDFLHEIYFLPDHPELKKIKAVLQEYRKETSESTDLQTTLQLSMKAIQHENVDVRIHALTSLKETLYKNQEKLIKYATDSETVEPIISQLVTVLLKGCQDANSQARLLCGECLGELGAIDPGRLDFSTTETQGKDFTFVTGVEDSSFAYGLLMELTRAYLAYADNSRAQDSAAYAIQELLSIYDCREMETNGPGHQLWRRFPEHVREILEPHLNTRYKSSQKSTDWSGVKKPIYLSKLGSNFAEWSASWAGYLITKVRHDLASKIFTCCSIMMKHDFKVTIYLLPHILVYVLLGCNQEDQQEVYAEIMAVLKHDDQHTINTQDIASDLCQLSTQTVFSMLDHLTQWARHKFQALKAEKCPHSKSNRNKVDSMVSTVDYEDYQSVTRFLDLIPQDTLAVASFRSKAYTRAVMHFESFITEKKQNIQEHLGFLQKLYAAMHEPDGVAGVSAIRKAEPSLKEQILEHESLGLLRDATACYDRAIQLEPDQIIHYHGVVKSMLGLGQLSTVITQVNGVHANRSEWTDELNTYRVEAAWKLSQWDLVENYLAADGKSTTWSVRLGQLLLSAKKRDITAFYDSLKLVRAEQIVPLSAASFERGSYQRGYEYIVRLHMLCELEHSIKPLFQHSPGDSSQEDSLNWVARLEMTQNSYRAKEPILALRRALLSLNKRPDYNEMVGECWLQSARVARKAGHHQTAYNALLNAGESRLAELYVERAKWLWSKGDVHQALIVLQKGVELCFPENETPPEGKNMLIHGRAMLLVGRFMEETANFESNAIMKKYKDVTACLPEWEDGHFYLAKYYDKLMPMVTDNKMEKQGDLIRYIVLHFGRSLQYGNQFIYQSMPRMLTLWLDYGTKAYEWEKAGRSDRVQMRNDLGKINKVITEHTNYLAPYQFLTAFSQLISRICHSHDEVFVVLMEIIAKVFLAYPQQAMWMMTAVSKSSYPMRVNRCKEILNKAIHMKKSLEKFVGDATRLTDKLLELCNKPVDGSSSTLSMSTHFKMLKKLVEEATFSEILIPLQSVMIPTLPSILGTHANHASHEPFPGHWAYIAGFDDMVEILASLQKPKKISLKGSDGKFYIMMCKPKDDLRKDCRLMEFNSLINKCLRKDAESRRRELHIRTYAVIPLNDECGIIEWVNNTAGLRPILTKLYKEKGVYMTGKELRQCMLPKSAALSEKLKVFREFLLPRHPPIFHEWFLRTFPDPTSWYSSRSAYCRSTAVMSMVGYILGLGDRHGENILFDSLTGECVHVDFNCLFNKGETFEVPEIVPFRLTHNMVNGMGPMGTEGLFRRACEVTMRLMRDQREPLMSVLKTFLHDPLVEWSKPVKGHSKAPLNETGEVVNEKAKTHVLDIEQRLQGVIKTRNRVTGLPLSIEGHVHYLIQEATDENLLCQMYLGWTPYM
# Sequence (Q8WXE1 other isoform, or with tags, fused parts or gaps partner): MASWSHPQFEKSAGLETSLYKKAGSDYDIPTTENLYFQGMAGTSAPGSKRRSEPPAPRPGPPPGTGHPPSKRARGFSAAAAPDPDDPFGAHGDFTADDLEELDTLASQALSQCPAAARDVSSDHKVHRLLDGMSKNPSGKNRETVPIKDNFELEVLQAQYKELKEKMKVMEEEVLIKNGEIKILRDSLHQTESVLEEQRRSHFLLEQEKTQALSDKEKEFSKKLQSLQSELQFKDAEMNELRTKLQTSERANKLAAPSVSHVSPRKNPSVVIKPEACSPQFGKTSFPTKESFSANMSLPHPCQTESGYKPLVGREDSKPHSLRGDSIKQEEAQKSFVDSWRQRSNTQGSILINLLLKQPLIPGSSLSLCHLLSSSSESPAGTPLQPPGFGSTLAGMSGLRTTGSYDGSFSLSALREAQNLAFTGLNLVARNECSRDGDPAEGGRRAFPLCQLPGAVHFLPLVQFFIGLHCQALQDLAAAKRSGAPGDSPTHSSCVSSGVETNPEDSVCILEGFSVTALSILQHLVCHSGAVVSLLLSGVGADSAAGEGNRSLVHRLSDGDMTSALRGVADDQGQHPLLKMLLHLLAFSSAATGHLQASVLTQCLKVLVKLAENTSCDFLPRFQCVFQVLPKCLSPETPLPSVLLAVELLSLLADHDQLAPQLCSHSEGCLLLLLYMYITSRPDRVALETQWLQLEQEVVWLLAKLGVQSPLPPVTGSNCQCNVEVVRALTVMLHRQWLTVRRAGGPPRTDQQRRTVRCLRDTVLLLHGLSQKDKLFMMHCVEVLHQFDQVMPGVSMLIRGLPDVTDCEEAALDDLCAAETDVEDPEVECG
# procedure text: Binding Assay ATR (TR-FRET, tracer A displacement)
# run parameters: displacement of fluorescent tracer A from GST-ATR/ATRIP
# Text: To determine of binding activity of the test compounds, full-length human ATR protein was expressed and purified together with ATRIP as described above. Furthermore, a fluorescently labelled compound (tracer A as described above) was used as a tracer molecule. Detection of the binding event of the tracer was achieved by time-resolved fluorescence energy transfer (TR-FRET). We used an anti-GST-Terbium antibody (CisBio) that binds to the GST-tag at the N-terminus of ATR-kinase. […]
reported metric: IC50 (nM)
Give just the numeric value; nM need not be written.

q: # query: IC50 of entry Cc1cnc(-c2ccn[nH]2)c2nc(N3CCOC[C@H]3C)cc(C3=CCCC3)c12
a: 26.5

More entries:
q: Fill blank: measured IC50 of the compound CCOP(C)(=O)c1cc(N2CCOC[C@H]2C)nc2c(-c3ccn[nH]3)ncc(C)c12 (some centres unmarked) is ____.
a: 42.2

q: Now the same for Cc1cnc(-c2ccn[nH]2)c2nc(N3CCOC[C@H]3C)cc(N(C)CC(C)(C)C)c12
a: 4.93

###

Listed compounds paired with reported pIC50
# target entity: full-length human ATR protein (ATR/ATRIP) (Homo sapiens (Human))
# procedure text: Binding Assay ATR (TR-FRET, tracer A displacement)
# run parameters: displacement of fluorescent tracer A from GST-ATR/ATRIP
Reminder that pIC50 is minus the log10 of a molar concentration.

q: State the recorded pIC50 for this entry: Cc1cnc(-c2ccn[nH]2)c2nc(N3CCOC[C@H]3C)cc(-c3ccc(C(=O)N4CCCC4)cc3)c12
a: 7.56

Others:
q: // lookup pIC50 for Cc1cnc(-c2ccn[nH]2)c2nc(N3CCOC[C@H]3C)cc(-c3cncc4ccccc34)c12
a: 7.40

q: Entry Cc1cnc(-c2ccn[nH]2)c2nc(N3CCOC[C@H]3C)cc(P(C)(=O)OCC(C)C)c12 (stereo partly drawn) please
a: 7.46

q: Follow-up item: Cc1cnc(-c2ccn[nH]2)c2nc(N3CCOC[C@H]3C)cc(-c3ccccc3)c12
a: 7.61

q: Next compound up: Cc1cnc(-c2ccn[nH]2)c2nc(N3CCOC[C@H]3C)cc(P(C)(C)=O)c12
a: 7.18

q: Another compound: Cc1cnc(-c2ccn[nH]2)c2nc(N3CCOC[C@H]3C)cc(-c3cccc(F)c3F)c12
a: 8.08

###

# target entity: full-length human ATR protein (ATR/ATRIP) (Homo sapiens (Human))
# procedure text: Binding Assay ATR (TR-FRET, tracer A displacement)
# run parameters: displacement of fluorescent tracer A from GST-ATR/ATRIP
# Description: To determine of binding activity of the test compounds, full-length human ATR protein was expressed and purified together with ATRIP as described above. Furthermore, a fluorescently labelled compound (tracer A as described above) was used as a tracer molecule. Detection of the binding event of the tracer was achieved by time-resolved fluorescence energy transfer (TR-FRET). We used an anti-GST-Terbium antibody (CisBio) that binds to the GST-tag at the N-terminus of ATR-kinase. […]
reported metric: IC50 (nM)
Return type: number; implicit unit nM.

q: Item COC(=O)c1cc(N2CCOC[C@H]2C)nc2c(-c3ccn[nH]3)ncc(C)c12 has what recorded IC50?
a: 53

q: Query CCS(=O)(CC)=Nc1cc(N2CCOC[C@H]2C)nc2c(-c3ccn[nH]3)ncc(C)c12 next
a: 14.1

Next:
q: Could you share which IC50 value was measured for COc1ncccc1-c1cc(N2CCOC[C@H]2C)nc2c(-c3ccn[nH]3)ncc(C)c12 ?
a: 72.2

q: Also, Cc1cnc(-c2ccn[nH]2)c2nc(N3CCOC[C@H]3C)cc(-c3cnc(Cl)n3C)c12 please.
a: 5.07

q: Now give it for COc1cncc(-c2cc(N3CCOC[C@H]3C)nc3c(-c4ccn[nH]4)ncc(C)c23)c1 too.
a: 42.6

q: Also need CNC(=O)c1ccc(-c2cc(N3CCOC[C@H]3C)nc3c(-c4ccn[nH]4)ncc(C)c23)cc1 , thanks.
a: 12.9

q: Proceed to COc1cc(OC)cc(-c2cc(N3CCOC[C@H]3C)nc3c(-c4ccn[nH]4)ncc(C)c23)c1
a: 112

q: Note, next up: COc1ccc(-c2cc(N3CCOC[C@H]3C)nc3c(-c4ccn[nH]4)ncc(C)c23)cn1
a: 15.4

###

# target entity: full-length human ATR protein (ATR/ATRIP) (Homo sapiens (Human), UniProt Q13535)
# procedure text: Binding Assay ATR (TR-FRET, tracer A displacement)
# run parameters: displacement of fluorescent tracer A from GST-ATR/ATRIP
reported metric: pIC50
pIC50 here is simply -log10 of the concentration when that concentration is written in mol/L.

q: Looking for the measured pIC50 of Cc1ncc(-c2cc(N3CCOC[C@H]3C)nc3c(-c4ccn[nH]4)ncc(C)c23)s1 [Example 16] , can you help?
a: 7.85

q: Also Cc1cnc(-c2ccn[nH]2)c2nc(N3CCOC[C@H]3C)cc(-c3ccc(C(N)=O)cc3)c12 [Example 52] , if possible.
a: 7.52

q: Same for Cc1cnc(-c2ccn[nH]2)c2nc(N3CCOC[C@H]3C)cc(-c3ccc(C(=O)N(C)C)cc3)c12 [Example 35]
a: 7.54

q: Follow-up entry: Cc1cnc(-c2ccn[nH]2)c2nc(N3CCOC[C@H]3C)cc(-c3ccc(C(=O)NC4CC4)cc3)c12 [Example 63]
a: 8.10

We now examine a further compound.
q: State the recorded pIC50 for this entry: Cc1cnc(-c2ccn[nH]2)c2nc(N3CCOC[C@H]3C)cc(-c3cc(F)cc(F)c3F)c12 [Example 26]
a: 7.95
